Cited source: patent US12370143B2

experiment: Nucleic acid encapsulation rate of nucleic acid lipid particles (FVII-siRNA); type: physicochemical
Reported Nucleic acid encapsulation rate is given for each of the following compounds.
Could you give me the number in %? Just the number is fine.

Before answering, review these 5 worked examples.
CCCCCCCC/C=C\CCCCCCCC(=O)OCCN(CCOC(=O)OC(CCCCCC)CCCC(=O)OCC(CCCCCC)CCCCCCCC)CCN(CC)CC (stereo not shown) ... 66
CCCCC/C=C\C/C=C\CCCCCCCCC(CCCCCCCC/C=C\C/C=C\CCCCC)OC(=O)OCCN(CCCCC)CCN(C)C ... 75
CCCCCCC(CCCC)COC(=O)CCCCCCCCC(CCCCCC)OC(=O)OCCN(CCOC(=O)CCCCC)CCN(CC)CC (stereo not shown) ... 73
CCCCCCCC/C=C\CCCCCCCC(=O)OCCN(CCOC(=O)OC(CCCCCC)CCCCCCCCC(=O)OCC(CCCCCC)CCCCCCCC)CCN(CC)CC (stereo not shown) ... 64
CCCCCCCCCCCC(=O)OCCN(CCOC(=O)OC(CCCCCC)CCCC(=O)OCC(CCCC)CCCCCC)CCN(CC)CC (stereo not shown) ... 85

Ask | Identify the reported Nucleic acid encapsulation rate for the following entry. CCCCCCCCCCCCC(CCCCCCCCC(=O)OCC(CCCC)CCCCCC)OC(=O)OCCN(CC)CCN(CC)CC (stereo not shown)
Reply | 84

Ask | Specify measured Nucleic acid encapsulation rate for CCCCCCCCCCCCC(CCCCCCCCC(=O)OCC(CCCC)CCCCCC)OC(=O)OCCN(CCN(CC)CC)C(C)C (stereo not shown) .
Reply | 78

Ask | Report Nucleic acid encapsulation rate, nothing else, for this compound: CCCCCCCC(CCCCCCC)COC(=O)CCCCCCCCC(CCCCCC)OC(=O)OCCN(CCN(CC)CC)C(C)C (stereo not shown)
Reply | 78

Ask | Report measured Nucleic acid encapsulation rate; entry is CCCCCCCC(=O)OCCN(CCOC(=O)OC(CCCCCC)CCCC(=O)OCC(CCCC)CCCCCC)CCN(CC)CC (stereo not shown)
Reply | 90

Ask | In one line, give reported Nucleic acid encapsulation rate of the entry CCCCCCCCCC(=O)OCCN(CCOC(=O)OC(CCCCCC)CCCC(=O)OCC(CCCCCC)CCCCCCCC)CCN(CC)CC (stereo not shown) .
Reply | 85

Ask | Tell me Nucleic acid encapsulation rate reported for CCCCCCCCCCCC(=O)OCCN(CCOC(=O)OC(CCCCCC)CCCCCCCCC(=O)OCC(CCCC)CCCCCC)CCN(CC)CC (stereo not shown)
Reply | 88

Ask | Fill in Nucleic acid encapsulation rate for record CCCCCCCCC(CCCCCC)COC(=O)CCCC(CCCCCC)OC(=O)OCCN(CCOC(=O)CCCCCCC)CCN(CC)CC (stereo not shown)
Reply | 88

Ask | Give Nucleic acid encapsulation rate for CCCCCCCCCCCCC(CCCCCCCCCC)COC(=O)CCCC(CCCCCC)OC(=O)OCCN(CCN(CC)CC)C(C)C (stereo not shown)
Reply | 100

Ask | Fill in reported Nucleic acid encapsulation rate for this entry: CCCC/C=C\CCCCCCCC(=O)OCCCCCCC(CCCCCCOC(=O)CCCCCCC/C=C\CCCC)OC(=O)OCCN(CC)CCN(CC)CC
Reply | 82

Ask | # return recorded Nucleic acid encapsulation rate for entry CCCCCCCCC(CCCCCC)COC(=O)CCCC(CCCCCC)OC(=O)OCCN(CCN(CC)CC)C(C)C (stereo not shown)
Reply | 88

Ask | Return reported Nucleic acid encapsulation rate. Input compound: CCCCCCCCC(=O)OCCN(CCOC(=O)OC(CCCCCC)CCCCCCCCC(=O)OCC(CCCC)CCCCCC)CCN(CC)CC (stereo not shown)
Reply | 79

Ask | Provide Nucleic acid encapsulation rate value for the following compound: CCCCC/C=C\C/C=C\CCCCCCCCC(CCCCCCCC/C=C\C/C=C\CCCCC)OC(=O)OCCCN(C)C [Comparative Example 8, reference compound]
Reply | 78

Ask | Complete the entry with Nucleic acid encapsulation rate for CCCCC/C=C\C/C=C\CCCCCCCCC(CCCCCCCC/C=C\C/C=C\CCCCC)OC(=O)OCCN(CCCC)CCN(C)C
Reply | 100

Ask | Supply recorded Nucleic acid encapsulation rate for CCCCCCCCC(CCCCCC)COC(=O)CCCCCCCCC(CCCCCC)OC(=O)OCCN(CCOC(=O)CCCCCCC)CCN(CC)CC (stereo not shown) here.
Reply | 79
